Tested on: P12-Ichikawa
Test: cell viability relative to DMSO control; higher = less cytotoxic
Settings: RPMI 5 mM glucose + 10% FBS; 48 h; 0.00234 µM
TEST_READOUT: cell viability (%)

| COMPOUND | TEST_READOUT | UNITS_OF_MEASURE | OBSERVED_RESULT |
| --- | --- | --- | --- |
| COC1=C(N2CCNC(C)C2)C(=CC3=C1N(\C=C(C(O)=O)/C3=O)C4CC4)F (stereo not given) | cell viability | % | 105 |
| CN[S+](=O)([O-])Cc1ccc2[nH]cc(CCN(C)C)c2c1 | cell viability | % | 123 |
| NC1(Cc2ccc(Cl)cc2)CCN(c2ncnc3[nH]ccc23)CC1 | cell viability | % | 99.4 |
| COC1=NC(=NC(=C1N\C2=N\CCN2)Cl)C | cell viability | % | 95.6 |
| CC1(C)O[C@@H]2C[C@H]3[C@@H]4CCC5=CC(=O)C=C[C@]5(C)[C@@]4(F)[C@@H](O)C[C@]3(C)[C@]2(C(=O)CO)O1 | cell viability | % | 115 |

---

Test system: SEM cells
Experiment: cell viability relative to DMSO control; higher = less cytotoxic
Settings: HPLM + 10% dialyzed FBS; 48 h; 46.1 µM
TEST_READOUT: cell viability (%)

| INPUT_SMILES | STUDY_SYSTEM | OBSERVED_RESULT |
| --- | --- | --- |
| OC1=CC=C(C=C1)\C2=C\OC3=C(C=CC(=C3)O)C2=O | SEM cells | 94.5 |
| CCCCCOC(=O)NC\1=N\C(=O)N(\C=C1F)[C@@H]2O[C@H](C)[C@@H](O)[C@H]2O | SEM cells | 100 |
| C[C@@H](NC1=CC=CC=C1C(O)=O)C/2=C/C(=C\N3C(=O)/C=C(\N=C23)N4CCOCC4)C | SEM cells | 19.8 |
| COc1ccc(Cc2ccc(NC(N)=O)cc2)cc1-c1cccc(Cl)c1 | SEM cells | 106 |
| CN(Cc1cnc2nc(N)nc(N)c2n1)c1ccc(C(=O)N[C@@H](CCC(=O)O)C(=O)O)cc1 | SEM cells | 15.2 |

---

System: SEM cells
Experiment: cell viability relative to DMSO control; higher = less cytotoxic
Conditions: RPMI 5 mM glucose + 10% dialyzed FBS; 48 h; 0.0632 µM
Listed molecules paired with reported cell viability

| MOLECULE | UNITS_OF_MEASURE | cell viability |
| --- | --- | --- |
| CC1(C)CC(=O)c2c(C(F)(F)F)nn(-c3ccc(C(N)=O)c(NC4CCC(O)CC4)c3)c2C1 (stereo not given) | % | 76.6 |
| COC1=NC(=NC(=C1N\C2=N\CCN2)Cl)C | % | 104 |
| OC1=CC=C(C=C1)\C2=C\OC3=C(C=CC(=C3)O)C2=O | % | 101 |
| COc1nccc(-c2c(-c3ccc(F)cc3)ncn2C2CCNCC2)n1 | % | 116 |
| CC(C)NCC(O)COc1ccc(COCCOC(C)C)cc1 (stereo not given) | % | 117 |
| Cc1ccc(NC(=O)c2ccc(CN3CCN(C)CC3)cc2)cc1Nc1nc(-c2cccnc2)cs1 | % | 63.6 |
| COc1cc2nc(N(C)CCCNC(=O)C3CCCO3)nc(N)c2cc1OC (stereo not given) | % | 89 |
| CC(C)[C@@H](N(CCCN)C(=O)C1=CC=C(C)C=C1)C/2=N/C3=CC(=CC=C3C(=O)N2CC4=CC=CC=C4)Cl | % | 16.4 |
| NC(=O)c1cnc(N[C@@H]2CCCC[C@@H]2N)nc1Nc1cccc(-n2nccn2)c1 | % | 162 |
| CCC1(C)CC(=O)NC1=O (stereo not given) | % | 116 |
